Data provenance is ChEMBL document CHEMBL1123620.

Ki for assorted compounds
- assay target: Renin (Homo sapiens)
- Sequence (P00797 whole entry): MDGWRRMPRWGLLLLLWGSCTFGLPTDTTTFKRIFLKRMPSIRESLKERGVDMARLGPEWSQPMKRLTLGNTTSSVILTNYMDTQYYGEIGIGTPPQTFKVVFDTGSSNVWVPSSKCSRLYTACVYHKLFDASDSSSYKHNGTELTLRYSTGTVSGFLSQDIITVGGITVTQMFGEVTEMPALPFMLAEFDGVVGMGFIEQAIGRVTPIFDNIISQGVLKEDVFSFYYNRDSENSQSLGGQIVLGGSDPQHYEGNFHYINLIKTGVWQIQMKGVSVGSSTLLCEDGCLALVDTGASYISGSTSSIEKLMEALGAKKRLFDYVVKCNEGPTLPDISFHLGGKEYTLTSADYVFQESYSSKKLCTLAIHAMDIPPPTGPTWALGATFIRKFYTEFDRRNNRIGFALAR
- test description: Inhibition of purified human kidney renin, radioimmunoassay using a synthetic tetradecapeptide renin substrate at 10e-9 M concentration
measured attribute: Ki

| compound | assay target | experimental result |
| --- | --- | --- |
| CC(C)CC(NC(=O)[C@H](Cc1cnc[nH]1)NC(=O)[C@H](Cc1ccccc1)NC(=O)OC(C)(C)C)C(O)CC(=O)N[C@@H](CC(C)C)C(=O)NC(C)c1ccccc1 (single isomer, unassigned; (+)) | Renin (Homo sapiens) | 6 nM |
| CC(C)CC(NC(=O)[C@H](Cc1c[nH]cn1)NC(=O)[C@H](Cc1ccccc1)NC(=O)OC(C)(C)C)C(O)CC(=O)N[C@@H](CC(C)C)C(=O)NC1CCN(Cc2ccccc2)CC1 (some centres undefined) | Renin (Homo sapiens) | 0.04 nM |
| C=C1c2ccccc2CC(NC(=O)[C@H](CC(C)C)NC(=O)CC(O)C(CC(C)C)NC(=O)[C@H](Cc2c[nH]cn2)NC(=O)[C@H](Cc2ccccc2)NC(=O)OC(C)(C)C)c2ccccc21 (some centres undefined) | Renin (Homo sapiens) | 520 nM |
| CC(C)CC(NC(=O)[C@H](Cc1c[nH]cn1)NC(=O)[C@H](Cc1ccccc1)NC(=O)OC(C)(C)C)C(O)CC(=O)N[C@@H](CC(C)C)C(=O)NC(C)C(O)c1ccccc1 (some centres undefined) | Renin (Homo sapiens) | 36 nM |
